Tested on: PC-3 prostate cancer cells
protocolText: MTT assay of PC-3 prostate cancer cell growth (proliferation) inhibition
Assay type: cell-based, human
conditionInfo: Homo sapiens, 144 h, PC-3 cells, 6 days of treatment, read-out: GI50 Values (concentrations that cause 50% growth inhibition)
measuredProperty: GI50 (µM)
Respond numerically; units are µM and should not be typed.

Q: Fill in: GI50 of CC1=C(/C=C/C(C)=C/C=C/C(C)=C/C(=O)Nc2ccccc2)C(C)(C)CCC1n1ccnc1 (stereo not shown) [drawing 40] is ___
A: 1.17

***
Q: Entry under review: CC1=C(/C=C/C(C)=C/C=C/C(C)=C/C(=O)NC(C)(C)C)C(C)(C)CCC1n1ccnc1 (stereo not shown) [drawing 35] . Reported GI50?
A: 1.86

Q: # get_value(readout='GI50', item= CC1=C(/C=C/C(C)=C/C=C/C(C)=C/C(=O)Nc2cc(C(F)(F)F)ccc2C(F)(F)F)C(C)(C)CCC1n1ccnc1 (stereo not shown) )
A: 14.1

Q: Recorded GI50 for CC1=C(/C=C/C(C)=C/C=C/C(C)=C/C(=O)Nc2ccc(O)cc2)C(C)(C)CCC1n1ccnc1 (stereo not shown) , please?
A: 1.7
